Data origin: ChEMBL document CHEMBL1961873

tgt: Non-receptor tyrosine-protein kinase TYK2 (Homo sapiens) (UniProt P29597)
Sequence (P29597 whole entry): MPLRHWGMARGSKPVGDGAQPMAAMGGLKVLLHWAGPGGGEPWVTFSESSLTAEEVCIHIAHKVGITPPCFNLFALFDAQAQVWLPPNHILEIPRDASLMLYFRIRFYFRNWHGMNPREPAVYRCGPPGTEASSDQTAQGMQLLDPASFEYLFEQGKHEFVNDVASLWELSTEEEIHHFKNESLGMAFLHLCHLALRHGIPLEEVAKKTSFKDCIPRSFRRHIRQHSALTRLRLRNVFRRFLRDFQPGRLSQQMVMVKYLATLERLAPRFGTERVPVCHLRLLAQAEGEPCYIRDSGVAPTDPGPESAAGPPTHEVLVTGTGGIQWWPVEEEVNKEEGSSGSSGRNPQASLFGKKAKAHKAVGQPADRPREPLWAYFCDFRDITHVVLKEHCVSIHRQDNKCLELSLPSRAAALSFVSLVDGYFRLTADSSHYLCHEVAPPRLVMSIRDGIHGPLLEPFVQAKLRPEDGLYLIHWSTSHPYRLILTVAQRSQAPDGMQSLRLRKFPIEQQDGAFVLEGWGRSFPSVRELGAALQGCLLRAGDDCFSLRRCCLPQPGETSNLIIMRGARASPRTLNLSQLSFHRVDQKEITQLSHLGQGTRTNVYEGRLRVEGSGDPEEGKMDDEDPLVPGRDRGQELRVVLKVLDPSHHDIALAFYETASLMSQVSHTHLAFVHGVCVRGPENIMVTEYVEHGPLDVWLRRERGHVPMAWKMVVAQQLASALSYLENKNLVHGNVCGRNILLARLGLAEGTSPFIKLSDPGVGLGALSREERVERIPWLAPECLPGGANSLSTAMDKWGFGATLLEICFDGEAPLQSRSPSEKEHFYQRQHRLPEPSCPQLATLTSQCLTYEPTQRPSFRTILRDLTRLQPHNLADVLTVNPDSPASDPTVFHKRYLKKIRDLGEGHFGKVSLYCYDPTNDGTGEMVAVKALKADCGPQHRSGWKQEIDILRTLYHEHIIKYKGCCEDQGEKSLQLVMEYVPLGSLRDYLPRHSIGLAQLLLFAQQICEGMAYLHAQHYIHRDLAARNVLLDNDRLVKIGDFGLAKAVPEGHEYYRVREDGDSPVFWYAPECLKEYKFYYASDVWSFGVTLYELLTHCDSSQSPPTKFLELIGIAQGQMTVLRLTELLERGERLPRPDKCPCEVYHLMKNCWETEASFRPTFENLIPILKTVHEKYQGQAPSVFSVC
reportedConditions: at 0.1 µM;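 note: each value is a mean of the inhibition readings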
For each of the compounds below, state its inhibition.
Express the result in % but write the number alone.

Quick check: inhibition of `NC(=O)c1cc(-c2ccc(F)cc2)cc(-c2ccncc2)c1N` ?
-2.58

Quick check: inhibition of `COc1ccc(-c2ccc3c(NC(=O)C4CC4)n[nH]c3n2)cc1` ?
0.27

Quick check: inhibition of `CCS(=O)(=O)c1ccc(OC)c(Nc2ncc(-c3ccccc3Cl)o2)c1` ?
-3.24

Quick check: inhibition of `O=C(Nc1ccc(Oc2ccc3[nH]c(NC(=O)c4ccccc4)nc3c2)cc1)Nc1cc(C(F)(F)F)ccc1F` ?
-4.63

Quick check: inhibition of `CN(c1ccc(NC(=O)Nc2c(Cl)cccc2Cl)cc1)c1ccnc(Nc2cccc(CS(C)(=O)=O)c2)n1` ?
-2.98
